Sourced from ChEMBL document CHEMBL1128929

# IC50 listing for each entry below
# METHOD: Compound was evaluated for its inhibitory activity against UV4 cell in the presence of drug and NADH.
# Assay type: functional, cell-based, Cricetulus griseus
Numbers only; they are read as µM.

Which IC50 is reported for this molecule? COc1cc2cc(C(=O)N3CC(CCl)c4ccc(NC(=O)OCc5ccc([N+](=O)[O-])cc5)cc43)[nH]c2c(OC)c1OC (stereo not drawn) 11.3

Which IC50 is reported for this molecule? COc1cc2cc(C(=O)N3CC(CCl)c4ccc([N+](=O)[O-])cc43)[nH]c2c(OC)c1OC (stereo not drawn) 0.237

Kindly consider the entry below.
Which IC50 is reported for this molecule? COc1cc2cc(C(=O)N3CC(CCl)c4ccc(N)cc43)[nH]c2c(OC)c1OC (stereo not drawn) 0.0266
